# assay: Oral bioavailability in dog at 2 mg/kg
# Type: ADME, organism-based, Canis lupus familiaris
# experimental_parameters: in vivo
parameter: bioavailability (%)

INSERT INTO results (record_smiles, parameter, unit_spec, test_value) VALUES
  ('C[C@H]1CC[C@@H](c2nc(-c3ccc(C(=O)Nc4cc(C(F)(F)F)ccn4)cc3F)c3c(N)nccn23)CN1C(=O)C1CC1', 'bioavailability', '%', 82),
  ('CC1(C(=O)N2CCC[C@@H](c3nc(-c4ccc(C(=O)Nc5cc(C(F)(F)F)ccn5)cc4F)c4c(N)nccn34)C2)COC1', 'bioavailability', '%', 60);

* * *

# assay: Clearance in rat at 4 mg/kg, iv
# Format: ADME, organism-based
# experimental_parameters: in vivo
parameter: clearance (mL/min/kg)
Numbers only here, please. The scale is mL/min/kg.

Given the compound CC1(C(=O)N2CCC[C@@H](c3nc(-c4ccc(C(=O)Nc5cc(C(F)(F)F)ccn5)cc4)c4c(N)nccn34)C2)COC1 , what is its reported clearance?
6.3

Each recorded value in this set is attributed to ChEMBL document CHEMBL4715708.
